Some compounds, each annotated with its measured DC50.
Biological target: GSPT1 (Homo sapiens, UniProt P15170+Q96SW2)
Construct: CAL-51 cells were purchased from DSMZ (cat. Number ACC302); host or cells: CAL-51
Sequence (P15170 whole entry): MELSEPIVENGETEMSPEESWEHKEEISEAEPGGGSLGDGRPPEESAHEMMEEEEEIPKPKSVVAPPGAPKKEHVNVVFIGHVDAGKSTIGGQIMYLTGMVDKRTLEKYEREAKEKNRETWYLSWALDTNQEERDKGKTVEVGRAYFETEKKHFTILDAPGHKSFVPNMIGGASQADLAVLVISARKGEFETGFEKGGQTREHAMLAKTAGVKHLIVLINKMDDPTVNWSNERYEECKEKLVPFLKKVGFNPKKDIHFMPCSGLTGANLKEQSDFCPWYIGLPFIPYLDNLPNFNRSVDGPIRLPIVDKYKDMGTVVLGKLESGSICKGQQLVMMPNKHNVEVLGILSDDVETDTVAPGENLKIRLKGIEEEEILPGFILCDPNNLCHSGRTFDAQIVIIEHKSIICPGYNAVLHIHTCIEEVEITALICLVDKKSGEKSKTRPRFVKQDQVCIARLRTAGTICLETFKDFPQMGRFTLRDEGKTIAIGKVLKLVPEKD
Sequence (Q96SW2 whole entry): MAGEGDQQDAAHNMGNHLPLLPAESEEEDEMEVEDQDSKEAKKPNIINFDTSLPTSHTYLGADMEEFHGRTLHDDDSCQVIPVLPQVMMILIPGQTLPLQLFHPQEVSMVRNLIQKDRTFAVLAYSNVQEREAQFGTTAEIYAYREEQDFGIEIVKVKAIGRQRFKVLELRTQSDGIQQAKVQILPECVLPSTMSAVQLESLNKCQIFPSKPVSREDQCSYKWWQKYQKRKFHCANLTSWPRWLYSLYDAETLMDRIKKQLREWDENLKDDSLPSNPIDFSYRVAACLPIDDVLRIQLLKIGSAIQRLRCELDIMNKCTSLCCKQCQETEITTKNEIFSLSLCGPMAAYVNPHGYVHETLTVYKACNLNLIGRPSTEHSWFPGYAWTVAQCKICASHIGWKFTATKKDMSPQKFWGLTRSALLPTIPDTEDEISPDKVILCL
Sequence (Q16531 2-1140 partner limits assumed): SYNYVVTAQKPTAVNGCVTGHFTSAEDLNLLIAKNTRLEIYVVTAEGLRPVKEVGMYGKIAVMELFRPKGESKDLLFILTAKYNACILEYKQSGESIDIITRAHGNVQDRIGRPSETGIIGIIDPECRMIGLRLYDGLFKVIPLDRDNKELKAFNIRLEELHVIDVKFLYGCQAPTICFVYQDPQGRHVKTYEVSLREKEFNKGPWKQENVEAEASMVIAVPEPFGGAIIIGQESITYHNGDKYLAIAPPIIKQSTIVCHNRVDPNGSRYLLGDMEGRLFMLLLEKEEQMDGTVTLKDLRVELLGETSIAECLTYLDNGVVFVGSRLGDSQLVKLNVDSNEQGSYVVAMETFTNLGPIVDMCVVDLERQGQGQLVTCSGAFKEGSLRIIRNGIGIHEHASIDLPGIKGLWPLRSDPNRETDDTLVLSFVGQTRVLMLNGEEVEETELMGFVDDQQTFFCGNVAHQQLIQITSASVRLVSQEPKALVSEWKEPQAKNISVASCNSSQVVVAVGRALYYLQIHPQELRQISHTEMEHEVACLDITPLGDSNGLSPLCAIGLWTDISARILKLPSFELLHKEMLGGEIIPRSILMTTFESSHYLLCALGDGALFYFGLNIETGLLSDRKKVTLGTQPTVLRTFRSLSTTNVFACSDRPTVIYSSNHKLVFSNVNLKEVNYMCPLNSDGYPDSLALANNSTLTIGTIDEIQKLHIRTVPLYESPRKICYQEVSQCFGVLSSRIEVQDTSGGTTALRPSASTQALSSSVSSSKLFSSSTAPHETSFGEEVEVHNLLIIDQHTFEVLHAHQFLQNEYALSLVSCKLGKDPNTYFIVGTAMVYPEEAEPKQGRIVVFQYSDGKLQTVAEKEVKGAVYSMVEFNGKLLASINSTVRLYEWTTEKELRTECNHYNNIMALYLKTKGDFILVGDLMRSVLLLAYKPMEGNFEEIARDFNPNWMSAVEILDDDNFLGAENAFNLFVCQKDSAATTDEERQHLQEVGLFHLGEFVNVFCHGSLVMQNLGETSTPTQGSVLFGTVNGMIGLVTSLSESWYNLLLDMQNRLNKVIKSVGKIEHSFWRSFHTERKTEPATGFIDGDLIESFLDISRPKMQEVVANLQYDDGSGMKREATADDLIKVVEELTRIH
Experiment: Immunofluorescence assay for activity to degrade GSPT1 in CAL-51 cells
Type: cell-based
Details: 6 h treatment, read-out: IF Class (GSPT1 degradation, DC50)

Would you please look over these solved cases?
- O=C1CCC(c2c(F)cc(N3CC(OC(=O)NC45CCC(C4)C5)C3)cc2F)C(=O)N1 (centres unmarked) [Compound 112]: 30 to 300 nM
- O=C1CCC(c2c(F)cc(N3CC(OC(=O)NCC4CC4)C3)cc2F)C(=O)N1 (centres unmarked) [Compound 82]: > 300 nM
- Cc1c(Cl)cc(NC(=O)OC2CN(c3cc(F)c(C4CCC(=O)NC4=O)c(F)c3)C2)cc1CN1CCOCC1 (centres unmarked) [Compound 5]: 30 to 300 nM

Returns the measured DC50 for the input compound. Input: CC(C)(C)c1ccc(NC(=O)NC2CN(c3cc(F)c(C4CCC(=O)NC4=O)c(F)c3)C2)cn1 (centres unmarked) [Compound 12]
≤ 30 nM

Returns the measured DC50 for the input compound. Input: Cc1cc(NC(=O)OC2CN(c3cc(F)c(C4CCC(=O)NC4=O)c(F)c3)C2)cc(C)c1C#N (centres unmarked) [Compound 48]
≤ 30 nM

Returns the measured DC50 for the input compound. Input: O=C1CCC(c2c(F)cc(N3CC(OC(=O)Nc4ccc(-c5ccccn5)cc4)C3)cc2F)C(=O)N1 (centres unmarked) [Compound 45]
≤ 30 nM

Returns the measured DC50 for the input compound. Input: Cc1cc(F)cc(NC(=O)OC2CN(c3cc(F)c(C4CCC(=O)NC4=O)c(F)c3)C2)c1 (centres unmarked) [Compound 78]
≤ 30 nM

Returns the measured DC50 for the input compound. Input: O=C1CCC(c2c(F)cc(N3CC(OC(=O)NC45CC(C(F)F)(C4)C5)C3)cc2F)C(=O)N1 (centres unmarked) [Compound 70]
≤ 30 nM
